Target: kinase protein levels in MCF-7 cells (Homo sapiens, UniProt A0A096LP01)
Construct: endogenous in cells; host or cells: MCF-7
Sequence (A0A096LP01 whole entry): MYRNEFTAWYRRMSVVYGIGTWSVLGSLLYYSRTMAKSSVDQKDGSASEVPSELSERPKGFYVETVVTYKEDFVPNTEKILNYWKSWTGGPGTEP
Test: TMT-labeled quantitative proteomics
Assay type: cell-based
Settings: protein LINC00493; MCF7; 2.5 µM; set3
recorded-metric: P.Value (compound/DMSO)

INSERT INTO measurements (molecule, observed_measurement) VALUES
  ('Cc1ncsc1-c1ccc(CNC(=O)[C@@H]2C[C@@H](O)CN2C(=O)[C@@H](NC(=O)CCOCCOCCOCCN2CCN(c3cc(Nc4cc(C5CC5)[nH]n4)nc(Nc4ccc(CC#N)cc4)n3)CC2)C(C)(C)C)cc1 [4-a]', 0.002092),
  ('CCOC(=O)c1cc(Nc2cc(C3CC3)[nH]n2)nc(Nc2ccc(CC#N)cc2)n1 [compound 5]', 0.03457),
  ('CC(=O)N[C@H](C(=O)N1C[C@H](O)C[C@H]1C(=O)NCc1ccc(-c2scnc2C)cc1OCCOCCOCCOCCOCCC(=O)N1CCN(c2ccc(Nc3ncc(Cl)c(Nc4ccccc4C(N)=O)n3)cc2)CC1)C(C)(C)C [6-e]', 0.7735),
  ('Cc1ncsc1-c1ccc(CNC(=O)[C@@H]2C[C@@H](O)CN2C(=O)[C@@H](NC(=O)CCOCCOCCOCCOCCN2CCN(c3ccc(Nc4ncc(Cl)c(Nc5ccccc5C(N)=O)n4)cc3)CC2)C(C)(C)C)cc1 [6-b]', 0.00484);

// provenance: paper PMC11851430
